The measurements presented in this section are drawn from ChEMBL document CHEMBL1201862.

- System: SF-295
- Test Summary: NCI tumour cell line growth inhibition, 48 h
Activity calls are given as the source filed them. Rule as the data show it: active = GI50 up to about 1.1 µM and inactive = higher.
Measured Endpoint: GI50

Some compounds with recorded GI50:
INSERT INTO results (compound, measured_endpoint, recorded_result) VALUES
  ('Cc1ccc(S(=O)(=O)N2CCCSCCN(S(=O)(=O)c3ccc(C)cc3)CCCSCC2)cc1', 'GI50', '> 100 µM (inactive)'),
  ('O=C(O)C(CO)NC(=O)C1C(C(=O)O)C(c2ccccc2[N+](=O)[O-])C=C(c2ccco2)N1c1ccncc1 (centres undefined)', 'GI50', '7.05 µM (inactive)'),
  ('CC1(C)C[C@@H]2C1CCC1(C)CC2(O)CC[C@H]1O (some centres undefined)', 'GI50', '> 100 µM (inactive)'),
  ('CCOC(=O)C1=C(Nc2ccc(Cl)c(Cl)c2)OC/C1=N\NC(=O)Cc1ccccc1', 'GI50', '> 100 µM (inactive)');

Q: Reported GI50, compound NC(Cc1ccc2oc3cc(=O)c4ccccc4c-3nc2c1)C(=O)O (centres undefined) : ____
Result: 22.3 µM (inactive)

Q: Which GI50 reading was recorded for the compound CN(C)CC1CC/C(=C\c2ccc(O)cc2)C1=O (centres undefined) ?
Result: 19.2 µM (inactive)

Q: What does the record list as GI50 for O=C1OCC2OC(=O)c3cc(O)c(O)c(O)c3-c3c(O)c(O)c(O)c4c3C(=O)OC(C2OC(=O)c2cc(O)c(O)c(O)c2-c2c1cc(O)c(O)c2O)C1OC(=O)c2c-4c(O)c(O)c(O)c2[C@@H]1C(O)C(O)C(O)C(O)CO (some centres undefined) ?
Result: 20.1 µM (inactive)

Q: GI50 for Clc1nncc2sc(-c3ccccc3)nc12 ?
Result: 27.1 µM (inactive)

Q: Field request: GI50 | item: OCC1NCC(O)C(O)C1O (centres undefined)
Result: > 10 µM (inactive)

---

- Tested on: ACHN
- Test Summary: NCI tumour cell line growth inhibition, 48 h
The source made the active and inactive calls. Rule as the data show it: active = GI50 up to about 1.1 µM and inactive = higher.
Your response should consist of one outcome taken from 1 for active, -1 for inactive

Here are 3 compounds together with their reported answers.
INSERT INTO measurements (compound, label_class) VALUES
  ('O=[N+]([O-])O', -1),
  ('CCOC(=O)NC(Nc1ccc(C(=O)O)cc1)(C(F)(F)F)C(F)(F)F', -1),
  ('O=C(O)c1c2c(cc3c1CC1(Cc4cc5c(cc4C1=O)CCC5)C3)CCC2 (stereo not given)', -1);

Q: Please state the recorded outcome for this compound: O=C(/C=C/c1ccc(O)cc1)c1ccc(O)cc1 [4,4'-DIHYDROXYCHALCONE]
Result: -1

Q: What is the recorded call for this compound in the test? C#CCOCn1cnc2c(N)ncnc21
Result: -1

Q: State the result this test recorded for CC1=CC2C(=O)N(c3ccccc3)C(=O)C2CC1n1[nH]c(=O)n(Cc2ccccc2)c1=O (stereo not given) .
Result: -1

Q: I would be grateful if you could indicate the recorded call for NNC(=O)CNc1cccc(Br)c1 .
Result: -1

Q: Called result for CCN(CC)CCNc1ccc2nnn3c4ccc(OCCN(CC)CC)cc4c(=O)c1c23
Result: -1

---

- System: LOX IMVI
- Test Summary: NCI tumour cell line growth inhibition, 48 h
Active and inactive are the calls of the source. No stated cut-off is given here; in the data, active = GI50 up to about 1.1 µM and inactive = higher.
Hello, when you answer, please use one of the following outcomes: active, inactive

Some entries whose results are on file:
INSERT INTO measurements (compound, label_class) VALUES
  ('Cn1c(=O)c2nc(SCc3ccccn3)[nH]c2n(C)c1=S', 'inactive'),
  ('CCCCCC(O)(CCCCC)CCCCCCCCC1=C(O)C(=O)c2ccccc2C1=O', 'inactive'),
  ('CCOC(=O)C1=NN(c2ccccc2)C2=CC(C)=NN(C)C(=S)N21', 'inactive');

Q: Please let me know the test result on file for Clc1nncc2sc(-c3ccccc3)nc12 .
Result: inactive

Q: Kindly provide the recorded test outcome for the following compound: O=C(C[n+]1ccc2ccccc2c1)c1ccc2ccc3ccccc3c2c1
Result: active

Q: Could you check what this test reported for O=C(CCC(=O)Nc1ccc(Cl)c(Cl)c1)CC(=O)c1ccc(Cl)cc1 ?
Result: inactive

Q: Please indicate how the test categorized Cc1nc(Cl)c(Cl)c(Cl)n1 .
Result: active

Q: For N#CCC(=O)N/N=C1/C(=O)N(c2cc(Cl)ccc2Cl)C(=O)C(=O)C1c1nc2ccccc2s1 (stereo not drawn) , what call appears in the results of this test?
Result: inactive

Q: // param item: NC1=C(N2CCCCC2)C(=O)NC2=N/C(=C\c3ccco3)C(=O)N21 ; yields the recorded call
Result: inactive

Q: What outcome does the record of this test show for COCN1C(=O)[C@@H]2CCCN2C(=O)c2ccc(N)cc21 ?
Result: inactive

Q: Dear all, I need the recorded test outcome for CC(C)NC(=O)OCC[S+]([O-])c1c(Cl)c(Cl)nn1C (stereo not drawn) , thank you.
Result: active

Q: What outcome does the record of this test show for CNC(=O)CCCNC(=O)CCCC(=O)OC ?
Result: inactive

Q: Short answer needed: outcome of this test for O=C1C=C(Br)C(=O)C12CCc1ccccc12 (stereo not drawn) ?
Result: inactive
